test: Acyl group migration (rearrangement) of pro-drug in DMSO-d6/buffer solution monitored by 19F-NMR; assay type: physicochemical; conditions: pH 7, 40° C., time 24 hr
OUTCOME MEASURE: N-acyl prodrug (% present) (%)

The examples below pair each entry with its known result.
>>> df
                            chemical_smiles  measured_value
0  CCCN(CCC)C(=O)c1cc(C(=O)N(Cc2cccc(C(F)(F)F)c2)C[C@@H](O)[C@@H](N)Cc2cc(F)cc(F)c2)cc(-c2ncco2)c1.Cl              49
1  CCCN(CCC)C(=O)c1cc(C(=O)O[C@H](CNCc2cccc(C(F)(F)F)c2)[C@@H](N)Cc2cc(F)cc(F)c2)cc(-c2ncco2)c1.Cl.Cl              43
2  CCCN(CCC)C(=O)c1cc(C(=O)O[C@H](CNCc2cccc(CC)c2)[C@@H](N)Cc2cc(F)cc(F)c2)cc(-c2ncco2)c1.Cl.Cl              38

(P) CCCN(CCC)C(=O)c1cc(C(=O)O[C@H](CNC2(c3cccc(CC)c3)CC2)[C@@H](N)Cc2cc(F)cc(F)c2)cc(-c2ncco2)c1.Cl.Cl
(Q) CCCN(CCC)C(=O)c1cc(C(=O)N(Cc2cccc(CC)c2)C[C@@H](O)[C@@H](N)Cc2cc(F)cc(F)c2)cc(-c2ncco2)c1.Cl
*Q* Larger number for N-acyl prodrug (% present): P , or Q ? Output the label that corresponds to your choice.
*A* Q
(Q: 60%, P: 0%)

* * *

test: Acyl group migration (rearrangement) of pro-drug in DMSO-d6/buffer solution monitored by 19F-NMR; assay type: physicochemical; conditions: pH 4, 40° C., time 48 hr
OUTCOME MEASURE: HEA product (% present) (%)

The examples below pair each entry with its known result.
                            chemical_smiles          outcome_measure  measured_value
0  CCCN(CCC)C(=O)c1cc(C(=O)O[C@H](CNCc2cccc(CC)c2)[C@@H](N)Cc2cc(F)cc(F)c2)cc(-c2ncco2)c1.Cl.Cl  HEA product (% present)              88
1  CCCN(CCC)C(=O)c1cc(C(=O)N(Cc2cccc(CC)c2)C[C@@H](O)[C@@H](N)Cc2cc(F)cc(F)c2)cc(-c2ncco2)c1.Cl  HEA product (% present)               5

(a) C#Cc1cccc(C2(NC[C@@H](OC(=O)c3cc(C(=O)N(CCC)CCC)cc(-c4ncco4)c3)[C@@H](N)Cc3cc(F)cc(F)c3)CC2)c1
(b) CCCN(CCC)C(=O)c1cc(C(=O)N(Cc2cccc(C(F)(F)F)c2)C[C@@H](O)[C@@H](N)Cc2cc(F)cc(F)c2)cc(-c2ncco2)c1.Cl
*Q* Between a and b , which one has the lower reported HEA product (% present) value? Output the label that corresponds to your choice.
*A* b
(b: 8%, a: 86%)

* * *

assay: Acyl group migration (rearrangement) of pro-drug in DMSO-d6/buffer solution monitored by 19F-NMR; type: physicochemical; settings: pH 4, 40° C., time 3 hr
OUTCOME MEASURE: N-acyl prodrug (% present) (%)

The examples below pair each entry with its known result.
>>> df
                            chemical_smiles  unit_tag  measured_value
0  CCCN(CCC)C(=O)c1cc(C(=O)N(Cc2cccc(C(F)(F)F)c2)C[C@@H](O)[C@@H](N)Cc2cc(F)cc(F)c2)cc(-c2ncco2)c1.Cl         %              96
1  CCCN(CCC)C(=O)c1cc(C(=O)N(Cc2cccc(CC)c2)C[C@@H](O)[C@@H](N)Cc2cc(F)cc(F)c2)cc(-c2ncco2)c1.Cl         %             100
2  CCCN(CCC)C(=O)c1cc(C(=O)O[C@H](CNC2(c3cccc(CC)c3)CC2)[C@@H](N)Cc2cc(F)cc(F)c2)cc(-c2ncco2)c1.Cl.Cl         %               0

(1) CCCN(CCC)C(=O)c1cc(C(=O)O[C@H](CNCc2cccc(CC)c2)[C@@H](N)Cc2cc(F)cc(F)c2)cc(-c2ncco2)c1.Cl.Cl
(2) C#Cc1cccc(C2(NC[C@@H](OC(=O)c3cc(C(=O)N(CCC)CCC)cc(-c4ncco4)c3)[C@@H](N)Cc3cc(F)cc(F)c3)CC2)c1
*Q* Between 1 and 2 , which one has the lower reported N-acyl prodrug (% present) value? Output the label that corresponds to your choice.
*A* 2

* * *

test: Acyl group migration (rearrangement) of pro-drug in DMSO-d6/buffer solution monitored by 19F-NMR; assay type: physicochemical; details: pH 7, 40° C., time 48 hr
OUTCOME MEASURE: O-acyl pro-drug (% present) (%)

>>> df
                            chemical_smiles  measured_value
0  CCCN(CCC)C(=O)c1cc(C(=O)N(Cc2cccc(CC)c2)C[C@@H](O)[C@@H](N)Cc2cc(F)cc(F)c2)cc(-c2ncco2)c1.Cl               0
1  CCCN(CCC)C(=O)c1cc(C(=O)N(Cc2cccc(C(F)(F)F)c2)C[C@@H](O)[C@@H](N)Cc2cc(F)cc(F)c2)cc(-c2ncco2)c1.Cl               0
2  CCCN(CCC)C(=O)c1cc(C(=O)O[C@H](CNCc2cccc(CC)c2)[C@@H](N)Cc2cc(F)cc(F)c2)cc(-c2ncco2)c1.Cl.Cl               0
3  CCCN(CCC)C(=O)c1cc(C(=O)O[C@H](CNCc2cccc(C(F)(F)F)c2)[C@@H](N)Cc2cc(F)cc(F)c2)cc(-c2ncco2)c1.Cl.Cl               0

* * *

experiment: Acyl group migration (rearrangement) of pro-drug in DMSO-d6/buffer solution monitored by 19F-NMR; assay type: physicochemical; settings: pH 7, 40° C., time 48 hr
OUTCOME MEASURE: HEA product (% present) (%)

>>> df
                            chemical_smiles  measured_value
0  CCCN(CCC)C(=O)c1cc(C(=O)N(Cc2cccc(CC)c2)C[C@@H](O)[C@@H](N)Cc2cc(F)cc(F)c2)cc(-c2ncco2)c1.Cl              63
1  CCCN(CCC)C(=O)c1cc(C(=O)N(Cc2cccc(C(F)(F)F)c2)C[C@@H](O)[C@@H](N)Cc2cc(F)cc(F)c2)cc(-c2ncco2)c1.Cl              73
2  CCCN(CCC)C(=O)c1cc(C(=O)O[C@H](CNCc2cccc(CC)c2)[C@@H](N)Cc2cc(F)cc(F)c2)cc(-c2ncco2)c1.Cl.Cl              71
3  CCCN(CCC)C(=O)c1cc(C(=O)O[C@H](CNCc2cccc(C(F)(F)F)c2)[C@@H](N)Cc2cc(F)cc(F)c2)cc(-c2ncco2)c1.Cl.Cl              73

* * *

test: Acyl group migration (rearrangement) of pro-drug in DMSO-d6/buffer solution monitored by 19F-NMR; format: physicochemical; details: pH 4, 40° C., time 3 hr
OUTCOME MEASURE: HEA product (% present) (%)

                                   molecule  measured_value
0  CCCN(CCC)C(=O)c1cc(C(=O)O[C@H](CNCc2cccc(C(F)(F)F)c2)[C@@H](N)Cc2cc(F)cc(F)c2)cc(-c2ncco2)c1.Cl.Cl [Preparation 18]              74

(A) CCCN(CCC)C(=O)c1cc(C(=O)O[C@H](CNC2(c3cccc(CC)c3)CC2)[C@@H](N)Cc2cc(F)cc(F)c2)cc(-c2ncco2)c1.Cl.Cl [Preparation 17]
(B) CCCN(CCC)C(=O)c1cc(C(=O)N(Cc2cccc(CC)c2)C[C@@H](O)[C@@H](N)Cc2cc(F)cc(F)c2)cc(-c2ncco2)c1.Cl [Preparation 19]
*Q* Between A and B , which one has the lower reported HEA product (% present) value? Output the label that corresponds to your choice.
*A* B

* * *

test: Acyl group migration (rearrangement) of pro-drug in DMSO-d6/buffer solution monitored by 19F-NMR; assay type: physicochemical; details: pH 4, 40° C., time 0 hr
OUTCOME MEASURE: O-acyl pro-drug (% present) (%)

>>> df
                            chemical_smiles  unit_tag  measured_value
0  CCCN(CCC)C(=O)c1cc(C(=O)O[C@H](CNCc2cccc(C(F)(F)F)c2)[C@@H](N)Cc2cc(F)cc(F)c2)cc(-c2ncco2)c1.Cl.Cl         %             100

(P) CCCN(CCC)C(=O)c1cc(C(=O)O[C@H](CNCc2cccc(CC)c2)[C@@H](N)Cc2cc(F)cc(F)c2)cc(-c2ncco2)c1.Cl.Cl
(Q) CCCN(CCC)C(=O)c1cc(C(=O)N(Cc2cccc(CC)c2)C[C@@H](O)[C@@H](N)Cc2cc(F)cc(F)c2)cc(-c2ncco2)c1.Cl
*Q* Larger number for O-acyl pro-drug (% present): P , or Q ? Output the label that corresponds to your choice.
*A* P
(P: 100%, Q: 0%)
